Attribution: patent US11040029B2

# method summary: Metabolic stability in human liver microsomes with/without quinidine
# condition: both, human, microsomes, pH 7.4
quantity kind: CLint scaled at 1 μM
Your reply should be a number followed by the unit it is expressed in.

Which CLint scaled at 1 μM value is on record for `COc1ccc2c(c1)[C@]13CCCC[C@@H]1[C@H](C2)N(C)CC3` ?
50 mL/min/kg

* * *

# method summary: Metabolic stability in cryopreserved human hepatocytes with/without quinidine
# condition: female, human, hepatocytes
quantity kind: CLint scaled at 1 μM (mL/min/kg)
Enter your answer as a number in mL/min/kg; do not include the unit.

Which CLint scaled at 1 μM value is on record for `COc1ccc2c(c1)[C@]13CCCC[C@@H]1[C@H](C2)N(C)CC3` ?
22.6

* * *

# method summary: in vitro
# condition: both, human, microsomes, pH 7.4
quantity kind: CLint scaled at 1 μM (mL/min/kg)
Enter your answer as a number in mL/min/kg; do not include the unit.

Which CLint scaled at 1 μM value is on record for `COc1cc2c(cc1OC)[C@H]1C[C@@H](O)[C@H](CC(C)C)CN1CC2` ?
10.4

* * *

# method summary: in vitro
# condition: female, human, hepatocytes
quantity kind: CLint scaled at 1 μM (mL/min/kg)
Enter your answer as a number in mL/min/kg; do not include the unit.

Which CLint scaled at 1 μM value is on record for COc1cc2c(cc1OC)[C@H]1C[C@@H](O)[C@H](CC(C)C)CN1CC2 [R,R,R-DHTBZ] ?
8.8

* * *

# Tested on: CYP2D6
# method summary: in vitro
# condition: female, human, hepatocytes
quantity kind: CLint scaled at 1 μM (mL/min/kg)
Enter your answer as a number in mL/min/kg; do not include the unit.

Which CLint scaled at 1 μM value is on record for COc1cc2c(cc1OC)[C@H]1C[C@@H](O)[C@H](CC(C)C)CN1CC2 [R,R,R-DHTBZ] ?
4
